- test_name: NCI Yeast Anticancer Drug Screen. Data for the mlh1 strain (AID 171);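 further: 0% = growth of vehicle-treated control cultures of the same strain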
- condition_info: S. cerevisiae mlh1 strain growth inhibition; at 3.7 µM; hits give high values
About 79,000 compounds went through this panel and 15% of them were active in at least one assay; those are over-represented in the sample as a whole. Calls of active or inactive are those of the source. No stated cut-off is given here; in the data, active means growth inhibition above about 70%; inactive means the rest.
readout_type: growth inhibition

Measured growth inhibition, Cc1c(C(C)C)cc(OCCO)cc1C(C)C : -4% (inactive)

Looking up Cc1ccccc1N=Cc1cc(Cl)ccc1O , I found its growth inhibition recorded as -5% (inactive)

// sample CCCCOCn1c(=O)[nH]c(=O)c2cc(Br)ccc21 , its growth inhibition was -48% (inactive)

Short answer for CN(C)CCOC1(Cc2ccc(F)cc2)CCC(C(C)(C)C)CC1 (stereo not given) : growth inhibition was 7% (inactive)

Noted for COc1cc(C2SCC(=O)N2c2ccc(-c3ccc(-n4c(-c5ccccc5)nc5ccccc5c4=O)cc3)cc2)ccc1O (stereo not given) : its growth inhibition reads 1% (inactive)
